Reference source for all entries: the RNAGym collection of RNA variant scans (doi:10.7554/elife.80360)

Please provide measured self-cleavage for the entries that follow.
B1: HDV Ribozyme (parent)
chain: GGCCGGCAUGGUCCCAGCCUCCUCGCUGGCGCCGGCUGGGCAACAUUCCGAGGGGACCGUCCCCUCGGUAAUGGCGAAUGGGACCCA

Variants of: B1
measurement.description: self-cleavage, relative activity (ratio to wild type); higher = more cleavage; co-transcriptional

Please review the following examples before continuing.
G52A G81U	0.244
C21A C26U	0

Provide each entry's self-cleavage from the list below.
1. G52U C63A
2. C18G U27C

[0.806, 0.237]
